target-desc: UniProtKB P29274
Sequence (P29274 whole entry): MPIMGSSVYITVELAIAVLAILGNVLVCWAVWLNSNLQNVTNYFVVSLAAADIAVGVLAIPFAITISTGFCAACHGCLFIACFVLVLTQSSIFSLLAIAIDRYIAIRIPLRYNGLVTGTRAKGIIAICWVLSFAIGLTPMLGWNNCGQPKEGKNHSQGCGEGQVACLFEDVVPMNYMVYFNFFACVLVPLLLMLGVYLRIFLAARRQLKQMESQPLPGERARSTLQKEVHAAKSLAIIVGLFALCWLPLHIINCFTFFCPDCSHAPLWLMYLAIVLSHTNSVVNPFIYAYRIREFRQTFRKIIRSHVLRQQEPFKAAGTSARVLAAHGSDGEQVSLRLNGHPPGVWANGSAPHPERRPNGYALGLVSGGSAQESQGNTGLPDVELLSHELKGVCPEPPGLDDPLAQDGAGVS
pKi: −log10 of the molar value.
Reported pKi is given for each of the following compounds.

compound: Cl.Cn1nc(-c2cnc3ccc(C(F)(F)F)cn23)c2ccc(C(=O)N3CCCCCC3)cc21 [Example 85, HCl salt]
pKi: 6.75

compound: CCN(C(=O)c1ccc(C(=O)c2cnc3ccc(F)cn23)cc1Cl)C1CCCCC1
pKi: 7.47

compound: Cl.O=C(c1ccc2c(-c3cnc4ccc(F)cn34)nn(Cc3ccccc3)c2c1)N1CCCCCC1 [Example 107, HCl salt]
pKi: 7.47

compound: CCN(C(=O)c1ccc(C(=O)c2cnc3ccc(Cl)nn23)cc1)C1CCCCC1
pKi: 6.34

compound: Cn1nc(-c2cnc3ccc(F)cn23)c2ccc(C(=O)N3CCCCCC3)cc21
pKi: 8.40

compound: CCN(C(=O)c1ccc(C(=O)c2cnc3ccc(C#N)cn23)cc1)C1CCCCC1
pKi: 6.77
